Molecular target: Atrial natriuretic peptide receptor 1 (Homo sapiens) (UniProt P16066)
Sequence (P16066 whole entry, looked up): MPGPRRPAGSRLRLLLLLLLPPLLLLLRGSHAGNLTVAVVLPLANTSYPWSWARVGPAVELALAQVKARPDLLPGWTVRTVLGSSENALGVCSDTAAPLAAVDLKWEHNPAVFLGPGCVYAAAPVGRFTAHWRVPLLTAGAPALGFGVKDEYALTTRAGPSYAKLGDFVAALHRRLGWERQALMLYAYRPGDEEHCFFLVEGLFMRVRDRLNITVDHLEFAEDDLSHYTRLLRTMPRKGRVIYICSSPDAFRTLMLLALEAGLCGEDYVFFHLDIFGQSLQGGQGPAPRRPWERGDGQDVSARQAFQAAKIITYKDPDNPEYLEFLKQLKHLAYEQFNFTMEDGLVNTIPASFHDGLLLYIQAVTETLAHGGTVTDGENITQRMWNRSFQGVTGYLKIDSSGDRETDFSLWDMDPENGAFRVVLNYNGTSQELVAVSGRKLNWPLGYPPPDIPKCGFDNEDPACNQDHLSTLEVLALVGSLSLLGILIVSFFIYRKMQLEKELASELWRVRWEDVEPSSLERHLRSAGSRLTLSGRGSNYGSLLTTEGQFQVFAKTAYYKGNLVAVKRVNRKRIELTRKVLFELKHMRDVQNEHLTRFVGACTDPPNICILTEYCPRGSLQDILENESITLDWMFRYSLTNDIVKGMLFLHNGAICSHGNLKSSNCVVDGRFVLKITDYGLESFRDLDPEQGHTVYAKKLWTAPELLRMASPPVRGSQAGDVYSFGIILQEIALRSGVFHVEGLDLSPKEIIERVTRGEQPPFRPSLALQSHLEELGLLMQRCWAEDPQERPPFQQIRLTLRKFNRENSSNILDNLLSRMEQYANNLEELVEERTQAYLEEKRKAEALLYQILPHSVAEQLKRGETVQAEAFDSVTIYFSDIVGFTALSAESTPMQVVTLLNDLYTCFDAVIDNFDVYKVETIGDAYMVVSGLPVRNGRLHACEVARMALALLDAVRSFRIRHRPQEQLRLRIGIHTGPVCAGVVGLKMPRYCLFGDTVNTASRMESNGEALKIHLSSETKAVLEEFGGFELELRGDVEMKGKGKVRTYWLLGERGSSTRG
Assay: Natriuretic polypeptide receptor (hNpr1) antagonism - Pilot CMLD screen (AID 1347052);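 further: HEK293 cells with hNpr1 stimulated by hNppA peptide at 0.1 nM; cGMP level read as GloSensor luciferase luminescence after agonist stimulation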
Conditions: HEK293 hNpr1 GloSensor cGMP luminescence, ANP-stimulated; series mostly up to 9.22 µM
Records with an inconclusive call do not appear. Active and inactive are the calls of the source. The call rests on the fitted dose curve.
attribute_measured: outcome

Here is how some compounds turned out for outcome.
{"compound": "CC(C)=CCC12CC3[C@@H](O)C(C(=O)c4ccccc4)(C1=O)C(=O)C(CC=C(C)C)(C2=O)C3(C)C (stereo partly drawn)", "outcome": "inactive"}
{"compound": "COC(=O)C1=C(C(=O)OC)[C@@H]2N(C)c3ccc(OC)cc3[C@@]23C[C@@H](C(=O)OC)N(C(=O)c2ccco2)C3=N1", "outcome": "inactive"}
{"compound": "COc1ccc2c(c1)O[C@@H](c1cccc(C(F)(F)F)c1)[C@H](OC(=O)Nc1ccc(OC(F)F)cc1)C2=O", "outcome": "inactive"}
{"compound": "COCCN1C(=O)NC(c2cccc(C(F)(F)F)c2)C(C(C)=O)=C1C (stereo not drawn)", "outcome": "inactive"}
{"compound": "C=CC1=C2C=C(C3CC3)N(CCOC)C=C2C(=O)C(C)(OC(=O)c2ccco2)C1=O (stereo not drawn)", "outcome": "inactive"}
{"compound": "O=C1C[C@@H](c2ccccc2)[C@H](c2ccc(Br)cc2)O1", "outcome": "inactive"}
{"compound": "CC(C)(C)c1ccc(O[C@@H]2[C@H](O)CO[C@@H]2C=CC#Cc2ccccc2)cc1", "outcome": "inactive"}
{"compound": "C=CCO[C@@H]1C=C[C@@H](c2ccccc2)O[C@@H]1COC", "outcome": "inactive"}

# return recorded outcome for input "CC(=O)OC[C@H]1O[C@@H](ON=CC[C@@H]2C=C[C@@H](OC(C)=O)[C@@H](COC(C)=O)O2)[C@@H](OC(C)=O)[C@@H](OC(C)=O)[C@@H]1OC(C)=O" inactive

# return recorded outcome for input "CC(=O)OC[C@H]1O[C@H](CC=NO[C@@H](C)c2cn([C@H](CO)Cc3ccccc3)nn2)C=C[C@@H]1OC(C)=O" inactive

# return recorded outcome for input CCOC(=O)CN1C(=O)NC(c2ccccc2)C(C(C)=O)=C1C (stereo not drawn) inactive

# return recorded outcome for input "COC(=O)C1=C(C(=O)OC)[C@@H]2Nc3ccccc3[C@@]23C[C@@H](C(=O)OC)N(C(=O)Nc2ccccc2F)C3=N1" inactive

# return recorded outcome for input COCCN1C(=O)NC(c2ccccc2)C(C(=O)OC)=C1C (stereo not drawn) inactive

# return recorded outcome for input "COC(=O)[C@@H]1CC[C@H](C)[C@@H](c2ccc(C)cc2)N1C(=O)c1ccc(C=NO[C@@H](C)c2cn([C@H](CO)Cc3ccccc3)nn2)cc1" inactive
